B1: H2-Kb / Ed16-30 (parent complex)
chain 1: GEQVEQRPPHLSVREGDSAVIICTYTDPNSYYFFWYKQEPGAGLQLLMKVFSSTEINEGQGFTVLLNKKDKQLSLNLTAAHPGDSAVYFCAVSEPSSGQKLVFGQGTILKVYL
chain 2: EAAVTQSPRNKVAVTGGKVTLSCNQTNNHNNMYWYRQDTGHGLRLIHYSYGAGSTEKGDIPDGYKASRPSQENFSLILELATPSQTSVYFCAGRDTGQLYFGEGSKLTVL
chain 3: not shown
chain 4: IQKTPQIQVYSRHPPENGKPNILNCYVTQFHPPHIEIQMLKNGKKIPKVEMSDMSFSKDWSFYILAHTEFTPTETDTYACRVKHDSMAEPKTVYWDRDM
chain 5: SIINFEKL

# Variants of: B1
# ASSAY INFO: % of reporter cells activated (NFAT-GFP), raw; further: test concentration or dose not given here
Quick list: ratio to parent per entry.
TEST READOUT: ratio to parent

mutant_name="chain 5 F5P" result=0.769
mutant_name="chain 5 L8R" result=1.04
mutant_name="chain 5 L8M" result=1.08
mutant_name="chain 5 N4R" result=0.318
mutant_name="chain 5 K7L" result=0.401
mutant_name="chain 5 N4W" result=0.0129
mutant_name="chain 5 I3C" result=0.642
mutant_name="chain 5 K7E" result=0.0275
mutant_name="chain 5 F5A" result=1.21
mutant_name="chain 5 N4G" result=0.0285
mutant_name="chain 5 S1D" result=0.337
mutant_name="chain 5 N4I" result=0.0453
mutant_name="chain 5 N4P" result=0.121
mutant_name="chain 5 K7Q" result=0.297
mutant_name="chain 5 S1G" result=0.485
mutant_name="chain 5 K7M" result=0.57
mutant_name="chain 5 N4Y" result=0.0322
mutant_name="chain 5 E6Q" result=0.745
mutant_name="chain 5 I2K" result=0.978
mutant_name="chain 5 S1H" result=0.259
mutant_name="chain 5 E6M" result=0.399
mutant_name="chain 5 E6W" result=0.422
